Reported pEC50 by item:
Target: GR (Homo sapiens, UniProt P04150)
Sequence (P04150 whole entry): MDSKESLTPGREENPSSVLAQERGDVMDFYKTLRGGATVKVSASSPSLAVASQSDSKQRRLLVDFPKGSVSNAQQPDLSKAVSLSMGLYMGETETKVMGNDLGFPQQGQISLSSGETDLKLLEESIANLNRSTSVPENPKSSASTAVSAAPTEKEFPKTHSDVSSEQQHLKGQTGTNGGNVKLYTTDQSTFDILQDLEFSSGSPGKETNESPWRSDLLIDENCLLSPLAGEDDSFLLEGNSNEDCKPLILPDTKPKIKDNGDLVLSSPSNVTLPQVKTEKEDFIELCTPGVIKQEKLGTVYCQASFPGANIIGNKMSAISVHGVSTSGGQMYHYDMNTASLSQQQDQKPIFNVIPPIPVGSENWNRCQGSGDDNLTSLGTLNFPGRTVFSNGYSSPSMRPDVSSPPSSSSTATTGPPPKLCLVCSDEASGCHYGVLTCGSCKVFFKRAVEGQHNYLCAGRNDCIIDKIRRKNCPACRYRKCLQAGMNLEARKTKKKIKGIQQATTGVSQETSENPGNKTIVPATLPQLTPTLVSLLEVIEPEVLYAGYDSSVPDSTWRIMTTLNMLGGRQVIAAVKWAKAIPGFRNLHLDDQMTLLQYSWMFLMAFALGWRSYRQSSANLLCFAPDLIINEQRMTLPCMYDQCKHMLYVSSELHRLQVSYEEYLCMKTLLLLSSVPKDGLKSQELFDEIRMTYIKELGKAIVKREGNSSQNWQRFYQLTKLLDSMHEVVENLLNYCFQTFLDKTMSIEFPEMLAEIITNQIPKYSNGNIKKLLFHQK
Test: Transrepression Assay (GITAR), TNFα-β-lactamase reporter, U937 cells
Type: cell-based
Set-up: U937 cells contain an endogenous glucocorticoid receptor (GR); endogenous in cells; host or cells: U937 cells stably transfected with the TNF-alpha promoter beta-lactamase reporter
Details: U937 cells; inflection point; read-out: Transrepression U937 Cells GITAR IP
pEC50: −log10 of the molar value.
MEASURED_ATTRIBUTE: pEC50

• C[C@]12Cc3cnn(-c4ccc(F)cc4)c3C=C1CC[C@@]2(O)CC(O)c1cc(C(F)(F)F)ccn1 (single isomer, unassigned) [Example 5a] = 7.17
• Cc1cccnc1C(O)C[C@]1(O)CCC2=Cc3c(cnn3-c3ccc(F)cc3)C[C@@]21C (single isomer, unassigned) [Example 1a] = 7.02
• C[C@]12Cc3cnn(-c4ccc(F)cc4)c3C=C1CC[C@@]2(O)CC(O)c1cc(Br)ccn1 (single isomer, unassigned) [Example 10a] = 6.64
• C[C@]12Cc3cnn(-c4ccc(F)cc4)c3C=C1CC[C@@]2(O)CC(O)c1cc(C#N)ccn1 (some centres unmarked) = 7.32
• C[C@]12Cc3cnn(-c4ccc(F)cc4)c3C=C1CC[C@@]2(O)CC(O)c1ccccn1 (single isomer, unassigned) [Example 2a] = 6.63
• C[C@]12Cc3cnn(-c4ccc(F)cc4)c3C=C1CC[C@@]2(O)CC(O)c1ccc(C(F)(F)F)cn1 (some centres unmarked) = 6.46
• C[C@]12Cc3cnn(-c4ccc(F)cc4)c3C=C1CC[C@@]2(O)CC(O)c1ccc(F)cn1 (single isomer, unassigned) [Example 7b] = 6.60
• COc1ccnc(C(O)C[C@]2(O)CCC3=Cc4c(cnn4-c4ccc(F)cc4)C[C@@]32C)c1 (some centres unmarked) = 6.95
• C[C@]12Cc3cnn(-c4ccc(F)cc4)c3C=C1CC[C@@]2(O)CC(O)c1cc(C(F)(F)F)ccn1 (single isomer, unassigned) [Example 5b] = 6.84
• C[C@]12Cc3cnn(-c4ccc(F)cc4)c3C=C1CC[C@@]2(O)CC(O)c1ncccc1F (some centres unmarked) = 6.44
• C[C@]12Cc3cnn(-c4ccc(F)cc4)c3C=C1CC[C@@]2(O)CC(O)c1ccc(F)cn1 (single isomer, unassigned) [Example 7a] = 6.36
